- ASSAYED TARGET: Aryl hydrocarbon receptor (Homo sapiens)
- METHOD SUMMARY: ATG_Ahr_CIS: Attagene CIS-FACTORIAL HepG2 Assay for human Aryl Hydrocarbon Receptor (Ahr) (AID 2282930)
- EXPERIMENTAL CONTEXT: HepG2 AhR cis-factorial reporter transcription; actives raise or lower the signal
The source made the active and inactive calls. Rule for the calls: active = hit-call score of the fitted dose curve at least 0.9, where 1 is the maximum; inactive = score below 0.9.
ASSAY ENDPOINT: AC50

                                    compound      value_measured
 0                                C=C(C)CNCC            inactive
 1                 CC1(C)C(=O)N(Cl)C(=O)N1Br            inactive
 2                    CS(=O)(=O)c1ccc(Cl)cc1            inactive
 3                       CCCCCCCC(=O)OCCCCCC            inactive
 4  CCCCCCCCCCCCCC(=O)OCC(O)CO (stereo not given)            inactive
 5   CCCCCCCC(=O)OCC(O)CO (stereo not given)            inactive
 6           ClC(c1ccccc1)(c1ccccc1)c1ccccc1            inactive
 7  CCCOC(=O)c1c(Cl)c(Cl)c(Cl)c(Cl)c1C(=O)OCCC            inactive
 8                      CC=Cc1ccc(OC)c(OC)c1            inactive
 9  O=C(Nc1ccc2c(O)c(N=Nc3ccc(N=Nc4ccc(S(=O)(=O)O)cc4)cc3)c(S(=O)(=O)O)cc2c1)c1ccccc1            inactive
10      [O-]n1ccccc1=S.[O-]n1ccccc1=S.[Zn+2]            inactive
11                               CCCCCC(C)=O            inactive
12  COCCc1ccc(OCC(O)CNC(C)C)cc1 (stereo not given)            inactive
13               COc1ccc(N)c([N+](=O)[O-])c1            inactive
14                           CCCCCCOC(=O)CCC            inactive
15             CCCCCCCCC=CCCCCCCCC1=NCCN1CCO            inactive
16                     Cc1ccc(S(N)(=O)=O)cc1            inactive
17      O=C(Nc1ccc2c(c1)Cc1ccccc1-2)C(F)(F)F    10.2 µM (active)
18               Nc1ccc(Cl)c([N+](=O)[O-])c1            inactive
19                      O=C(O)c1cccnc1C(=O)O            inactive
20       Nc1ccn([C@H]2CS[C@@H](CO)O2)c(=O)n1            inactive
21                       CCN(CC)C(=O)N(CC)CC            inactive
22                               CCOCCOCCOCC            inactive
23                                  CCC(C)=O            inactive
24          c1ccc(CN(Cc2ccccc2)Cc2ccccc2)cc1            inactive
25                              COS(=O)(=O)O            inactive
26                                  C1CCCCC1            inactive
27                   C[Si](C)(C)O[Si](C)(C)C            inactive
28                 Cc1c(Cl)cccc1[N+](=O)[O-]            inactive
29                          CC/C=C\CC/C=C/CO            inactive
30             C=CC(C)C#N (stereo not given)            inactive
31                       CCN(CCN)c1cccc(C)c1      50 µM (active)
32                               COCCOCCOCCO            inactive
33    C=CC(C)(O)CCC=C(C)C (stereo not given)            inactive
34       C#CC(C)(O)CC(C)C (stereo not given)            inactive
35  Cc1c(OCC(F)(F)F)ccnc1CS(=O)c1nc2ccccc2[nH]1 (stereo not given)    1.28 µM (active)
36                  O=[N+]([O-])c1cccc(Cl)c1            inactive
37  Clc1cc(Cl)c(-c2c(Cl)c(Cl)cc(Cl)c2Cl)cc1Cl            inactive
38                        COc1cc(C(C)C)ccc1C            inactive
39  CS(=O)(=O)c1ccc(C2=C(c3ccccc3)C(=O)OC2)cc1  0.0408 µM (active)
40                     CC(C)CCOC(=O)c1ccccc1            inactive
41  O=C(c1ccccc1)C(O)c1ccccc1 (stereo not given)            inactive
42                        [Cl][Au]([Cl])[Cl]    39.8 µM (active)
43                      Cc1ccc(-c2ccccc2)cc1            inactive
44  C=CCCC(=O)/C=C/C1C(C)=CCCC1(C)C (stereo not given)    53.2 µM (active)
45                       CC=CC=CCOC(=O)C(C)C            inactive
46  CCOc1ccc(N=Nc2ccc(C=Cc3ccc(N=Nc4ccc(OCC)cc4)cc3S(=O)(=O)O)c(S(=O)(=O)O)c2)cc1    12.2 µM (active)
47                           CC[N+](C)(CC)CC            inactive
48                                    IC(I)I    12.8 µM (active)
49  O=C1OC2(c3ccccc31)c1ccc(O)c(Br)c1Oc1c2ccc(O)c1Br    56.6 µM (active)
